biological target: UniProt P09619; experiment: PDGFRβ Cellular Assay (PDGF-induced intracellular calcium, FLIPR, NHDF-Ad); type: cell-based; conditions: PDGF-BB stimulation (30 ng/mL)
Sequence (P09619 33-1106): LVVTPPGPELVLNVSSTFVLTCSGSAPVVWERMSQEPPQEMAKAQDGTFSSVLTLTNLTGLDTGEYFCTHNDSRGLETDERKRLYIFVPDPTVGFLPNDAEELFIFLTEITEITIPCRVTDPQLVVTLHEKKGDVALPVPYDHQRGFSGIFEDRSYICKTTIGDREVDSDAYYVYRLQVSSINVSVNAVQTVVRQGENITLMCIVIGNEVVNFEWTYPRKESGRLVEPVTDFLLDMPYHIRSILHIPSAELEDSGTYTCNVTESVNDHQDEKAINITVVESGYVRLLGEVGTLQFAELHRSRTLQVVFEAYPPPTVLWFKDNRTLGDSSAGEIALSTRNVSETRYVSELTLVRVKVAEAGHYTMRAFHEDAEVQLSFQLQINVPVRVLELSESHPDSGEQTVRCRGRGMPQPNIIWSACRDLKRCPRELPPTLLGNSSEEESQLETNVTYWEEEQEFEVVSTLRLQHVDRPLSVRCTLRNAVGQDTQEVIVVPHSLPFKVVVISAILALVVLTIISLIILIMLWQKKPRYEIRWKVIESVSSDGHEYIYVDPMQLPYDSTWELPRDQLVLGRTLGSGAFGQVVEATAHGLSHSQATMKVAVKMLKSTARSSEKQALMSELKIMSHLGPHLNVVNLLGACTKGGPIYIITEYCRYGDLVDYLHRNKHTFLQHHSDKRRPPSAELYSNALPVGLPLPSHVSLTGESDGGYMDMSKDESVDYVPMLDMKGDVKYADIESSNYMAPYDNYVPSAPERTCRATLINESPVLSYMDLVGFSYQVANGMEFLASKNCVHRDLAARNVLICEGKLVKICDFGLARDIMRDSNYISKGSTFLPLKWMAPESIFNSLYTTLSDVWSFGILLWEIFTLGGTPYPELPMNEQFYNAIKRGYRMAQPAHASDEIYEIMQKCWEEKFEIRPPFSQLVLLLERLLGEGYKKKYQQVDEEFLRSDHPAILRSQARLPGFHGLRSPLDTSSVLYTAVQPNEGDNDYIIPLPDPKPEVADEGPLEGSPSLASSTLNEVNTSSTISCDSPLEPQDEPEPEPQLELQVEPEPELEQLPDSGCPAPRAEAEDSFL
For each of the molecules below, state its IC50.
Numbers only, in nM.

> print(dat)
                                   molecule  experimental.target  quantity.measured  endpoint.value
1  COC(=O)CCCCS(C)(=O)=NC(=O)c1cnc(N)c(C#Cc2cccc(NC(=O)c3ccc(Cl)c(C(F)(F)F)c3)c2)c1 (stereo not shown)       UniProt P09619               IC50              15

For each of the molecules below, note its IC50.
1. Cc1ccc(F)c(NC(=O)Nc2cccc(C#Cc3cncc(C(=O)N=S(C)(C)=O)c3)c2)c1
2. COC(=O)CCCCS(C)(=O)=NC(=O)c1cnc(N)c(C#Cc2cccc(NC(=O)c3cc(C(F)(F)F)ccc3F)c2)c1 (stereo not shown)
3. COC(=O)CCCCS(C)(=O)=NC(=O)c1cnc(N)c(C#Cc2cccc(C(=O)Nc3cccc(C)c3)c2)c1 (stereo not shown)

Reply:
1: 28; 2: 19; 3: 13

====

molecular target: VEGFR2 (KDR) (Homo sapiens (Human), UniProt P35968); experiment: VEGFR2 Kinase Assay; format: biochemical; conditions: purified cytoplasmic domain KDR protein, 2.7 μM ATP; read-out: VEGFR2 Enzyme Assay (IC50 nM)
Sequence (P35968 786-1356): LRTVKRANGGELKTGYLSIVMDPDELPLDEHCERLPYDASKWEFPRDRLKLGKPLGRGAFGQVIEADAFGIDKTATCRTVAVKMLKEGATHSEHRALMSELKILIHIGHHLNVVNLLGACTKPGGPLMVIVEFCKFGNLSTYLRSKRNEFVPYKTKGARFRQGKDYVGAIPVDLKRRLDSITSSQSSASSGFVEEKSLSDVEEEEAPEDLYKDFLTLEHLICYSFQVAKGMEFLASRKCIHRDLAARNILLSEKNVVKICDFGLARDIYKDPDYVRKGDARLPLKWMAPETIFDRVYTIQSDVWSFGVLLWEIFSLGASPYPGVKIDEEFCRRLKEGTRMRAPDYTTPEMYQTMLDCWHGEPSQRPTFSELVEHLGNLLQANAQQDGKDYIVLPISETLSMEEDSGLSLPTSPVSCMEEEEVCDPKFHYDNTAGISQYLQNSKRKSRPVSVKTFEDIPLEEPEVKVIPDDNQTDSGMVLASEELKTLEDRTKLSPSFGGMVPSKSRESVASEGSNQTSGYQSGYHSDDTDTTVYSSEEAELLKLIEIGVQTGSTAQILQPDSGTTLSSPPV
QUANTITY_MEASURED: IC50 (nM)
One number for each entry, in nM.

Examples with their reported IC50 follow.
> print(dat)
                                   compound                       experimental.target  endpoint.value
1  COc1cccc(C(=O)Nc2cccc(C#Cc3cc(C(=O)N=S(=O)(CCCO)CCCO)cnc3N)c2)c1  VEGFR2 (KDR) (Homo sapiens (Human), UniProt P35968)               5
2  O=C(N=S(=O)(CCCO)CCCO)c1cncc(C#Cc2cccc(NC(=O)c3ccc(F)c(Cl)c3)c2)c1  VEGFR2 (KDR) (Homo sapiens (Human), UniProt P35968)               5
3  COC(=O)CCCCS(C)(=O)=NC(=O)c1cnc(N)c(C#Cc2cccc(C(=O)Nc3cccc(C)c3)c2)c1 (centres unmarked)  VEGFR2 (KDR) (Homo sapiens (Human), UniProt P35968)               7
4  Cc1ccc(F)c(NC(=O)Nc2cccc(C#Cc3cncc(C(=O)N=S(C)(C)=O)c3)c2)c1  VEGFR2 (KDR) (Homo sapiens (Human), UniProt P35968)               3
5  CS(C)(=O)=NC(=O)c1cncc(C#Cc2cccc(NC(=O)Nc3ccccc3F)c2)c1  VEGFR2 (KDR) (Homo sapiens (Human), UniProt P35968)               8

For every item below, please supply its IC50.
1. COC(=O)CCCCS(C)(=O)=NC(=O)c1cnc(N)c(C#Cc2cccc(NC(=O)c3cccc(C(F)(F)F)c3)c2)c1 (centres unmarked)
2. Cc1cccc(NC(=O)c2cccc(C#Cc3cc(C(=O)N=S(=O)(CCCO)CCCO)cnc3N)c2)c1
3. Cc1cccc(C(=O)Nc2cccc(C#Cc3cncc(C(=O)N=S(=O)(CCCO)CCCO)c3)c2)c1

Reply:
[4, 3, 3]
